system-tested: T1, human folate receptor alpha (hFRα), recombinant protein (human, UniProt P15328 25-233)
T1 construct: Bought recombinant proteins (His-tagged, or biotinylated via Avi-tag, e.g. AcroBiosystems FO1-H82E2, F01-H52H1); also called hFOLR1; huFOLR1
T1 sequence (P15328 25-233 limits assumed): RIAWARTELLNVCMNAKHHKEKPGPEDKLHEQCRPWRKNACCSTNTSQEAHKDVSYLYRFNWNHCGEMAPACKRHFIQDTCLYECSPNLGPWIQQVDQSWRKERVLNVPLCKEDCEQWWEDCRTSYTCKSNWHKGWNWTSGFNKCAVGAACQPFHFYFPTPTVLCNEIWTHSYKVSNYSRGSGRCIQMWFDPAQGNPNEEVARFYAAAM
assay-name: BLI, purified VHH
recorded-endpoint: koff (s⁻¹)

// known answers, use as guide
INSERT INTO assay_data (binder, recorded_endpoint, val) VALUES
  ('P01500046: P01500001(N73P)-FLAG3-HIS6 (VHH, also called P0150046) VHH: EVQLVESGGGLVQPGGSLRLSCAASGSGFSGMIMGWYRQAPGKQRELVATVTSHGTTNYADSVKGRFTISRDPAKNTVYLQMNSLRPEDTAVYYCNAHFPGIYWGKGTLVTVSS', 'koff', 0.00361),
  ('P01500042: P01500001(G28T, S30I)-FLAG3-HIS6 (VHH, also called P0150042) VHH: EVQLVESGGGLVQPGGSLRLSCAASGSTFIGMIMGWYRQAPGKQRELVATVTSHGTTNYADSVKGRFTISRDNAKNTVYLQMNSLRPEDTAVYYCNAHFPGIYWGKGTLVTVSS', 'koff', 0.00274),
  ('P01500058: P01500001(G26E, G28P)-FLAG3-HIS6 (VHH, also called P0150058) VHH: EVQLVESGGGLVQPGGSLRLSCAASESPFSGMIMGWYRQAPGKQRELVATVTSHGTTNYADSVKGRFTISRDNAKNTVYLQMNSLRPEDTAVYYCNAHFPGIYWGKGTLVTVSS', 'koff', 0.00318);

(I) P01500059: P01500001(G26E, D72E)-FLAG3-HIS6 (VHH, also called P0150059) VHH: EVQLVESGGGLVQPGGSLRLSCAASESGFSGMIMGWYRQAPGKQRELVATVTSHGTTNYADSVKGRFTISRENAKNTVYLQMNSLRPEDTAVYYCNAHFPGIYWGKGTLVTVSS
(II) P01500051: P01500001(D72E, N73G)-FLAG3-HIS6 (VHH, also called P0150051) VHH: EVQLVESGGGLVQPGGSLRLSCAASGSGFSGMIMGWYRQAPGKQRELVATVTSHGTTNYADSVKGRFTISREGAKNTVYLQMNSLRPEDTAVYYCNAHFPGIYWGKGTLVTVSS
query: Lab log: flag the item ( I or II ) with the smaller koff figure. In your reply, give the label of the chosen option.
result: II
(II: 0.000546 s⁻¹, I: 0.00204 s⁻¹)
